# System: M. tuberculosis H37Rv growth inhibition with meropenem
# Test Details: dose response, H37Rv, with and without meropenem (AID 434987);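 also: growth over 7 days at 37 °C before Alamar Blue read on day 9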
# Assay Setup: measured here: IC90 with meropenem
Experimental Endpoint: log10 of IC90 (log10 of the value in µM)
// do not treat as linear: log10 of IC90, unit µM

Q. # return recorded log10 of IC90 for entry `CC(=O)c1ccc(OC(=O)N(c2ccccc2)c2ccccc2)cc1`
A. 1.52

Q. # return recorded log10 of IC90 for entry `Cc1ccc(C2=N/C(=C\c3cccc(F)c3)C(=O)O2)cc1`
A. 0.60

Q. # return recorded log10 of IC90 for entry `COc1ccc(C(=O)CN(C(=O)c2ccc(Cl)cc2)N2C(=O)c3ccccc3C2=O)cc1`
A. 1.35

Q. # return recorded log10 of IC90 for entry `COc1ccc(OC)c(NC(=O)CS(=O)(=O)c2ccccc2)c1`
A. 1.16

Q. # return recorded log10 of IC90 for entry `CN(C)CCCN(C(=O)/C=C/c1cccs1)c1nc2ccc(F)cc2s1`
A. 1.68

---

# System: M. tuberculosis H37Rv growth inhibition with meropenem
# Test Details: dose response, H37Rv, with and without meropenem (AID 434987);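 also: growth over 7 days at 37 °C before Alamar Blue read on day 9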
# Assay Setup: M. tuberculosis H37Rv growth inhibition; measured here: IC50 without meropenem
Experimental Endpoint: IC50 (µM)
Give your result in µM as a bare value.

Q. # return recorded IC50 for entry `C=CCNCCCOc1ccc(Cl)cc1C(C)(C)C`
A. 58.2

Q. # return recorded IC50 for entry Cn1c(=S)[nH]c2sc3c(c2c1=O)CCC(C(C)(C)C)C3 (centres undefined)
A. 79

Q. # return recorded IC50 for entry Cc1ccc(C(=O)N2CCC3(CC2)Oc2ccc(F)cc2C(=O)C32CC(c3cccnc3)=NO2)s1 (centres undefined)
A. 94.9

Q. # return recorded IC50 for entry `COc1ccc(OC)c(Nc2nc(-c3cccs3)cs2)c1`
A. 49

Q. # return recorded IC50 for entry COCCNC(=S)N/N=C1\CC(C)CC(C)(C)C1 (centres undefined)
A. 32.4

Q. # return recorded IC50 for entry `Cc1c(C=O)c(C=O)c(C)n1Cc1ccccc1`
A. 52

Q. # return recorded IC50 for entry `COc1ccc(NC(=O)CSc2nncn2C)c([N+](=O)[O-])c1`
A. 90.1

Q. # return recorded IC50 for entry `Cc1cc(C=C2C(=O)NC(=S)NC2=O)c(C)n1-c1ccc2c(c1)OCO2`
A. 24.3

Q. # return recorded IC50 for entry `CCCOc1ccccc1NC(=O)/C=C/C(N)=O`
A. 26.8

Q. # return recorded IC50 for entry `Cc1cc(=O)[nH]c(N/N=C/c2c(O)n(-c3ccccc3)c(=O)c3ccccc23)n1`
A. 7.61

Q. # return recorded IC50 for entry `COc1cc(NC(=O)c2cccc(Cl)c2)c(OC)cc1NC(=O)CN1CCCCC1`
A. 23.7

Q. # return recorded IC50 for entry `Cc1c(C(=O)NC(=S)Nc2ccccc2N2CCCC2)cccc1[N+](=O)[O-]`
A. 82.6

Q. # return recorded IC50 for entry O=C(O)C1CC(=O)N(c2ccc(OCc3ccccc3Cl)cc2)C1 (centres undefined)
A. 41.6

Q. # return recorded IC50 for entry `COc1ccc(C(=O)Nc2oc(-c3ccccc3)c(-c3ccccc3)c2C#N)cc1OC`
A. 38.7

Q. # return recorded IC50 for entry `O=C(Nc1c2c(nc3ccccc13)CCCC2)c1ccccc1F`
A. 74

Q. # return recorded IC50 for entry `CCN(CC)C(=O)COc1ccc(-c2nnc(Nc3ccc(OC)c(C(=O)NC)c3)c3ccccc23)cc1`
A. 82.3

Q. # return recorded IC50 for entry CCc1cc2c(-c3ccccc3)cc(=O)oc2cc1OC(C)C(C)=O (centres undefined)
A. 47.4

Q. # return recorded IC50 for entry `Cc1ccc(-n2nnnc2Sc2nc([N+](=O)[O-])nn2C)c(C)c1`
A. 50.4

Q. # return recorded IC50 for entry `CN1C/C(=N\S(=O)(=O)c2ccccc2)N(C)C1=O`
A. 23.6

Q. # return recorded IC50 for entry `O=C1NC(=O)N(Cc2ccco2)C(=O)/C1=C\c1ccc(-c2ccc(F)cc2)o1`
A. 84.5

Q. # return recorded IC50 for entry `O=C1C(Cl)=C(N2CCCCCC2)C(=O)N1c1ccc(Br)cc1`
A. 18.3

The measurements presented in this section are drawn from PubChem BioAssay AID434987.
